Assay: NCI Yeast Anticancer Drug Screen. Data for the mlh1 strain (AID 171)
Conditions: S. cerevisiae mlh1 strain growth inhibition; at 100.0 µM
Experimental: Growth inhibition of yeast strains with defined genetic alterations is measured as a screen for potential anti-cancer activity. Selected strains with alterations in DNA damage repair or cell cycle control were exposed to compounds and growth inhibition was measured relative to vehicle treated controls. The strain used in this assay is mlh1
This is part of a sample that, as a whole, favours compounds with a hit. Of some 79,000 tested, about 15% had one in any assay. Calls of active or inactive are those of the source. Rule as the data show it: active = growth inhibition above about 70%; inactive = the rest.
Write down one outcome, taken from Yes = active, No = inactive

// below: answered compounds
CN(C)CCCCN1c2ccccc2Sc2ccc(N=[N+]=[N-])cc21
Yes
O=C(O)c1cc2ccc(Cl)cc2c(O)c1C1=CCCCC1
Yes

Input line: Short answer needed: outcome of this test for CC1(C)CC(=O)C(/C=N/c2nc(-c3ccccc3)cs2)=C(O)C1 ?
Output line: Yes

Input line: What classification did c1ccc2c(c1)sc1c3cnccc3ccc21 end up with in this test?
Output line: No

Input line: So what was the verdict on Nc1ccn(C2OC(COP(=O)(O)O)C(O)C2O)c(=O)n1 (stereo unspecified) in this test?
Output line: No

Input line: Please share the test call associated with C=C1CC(CCCl)(c2ccccc2)OC1=O (stereo unspecified) .
Output line: Yes

Input line: Please state the recorded outcome for this compound: Nc1ccc(F)cc1S
Output line: Yes

Input line: Kindly provide the recorded test outcome for the following compound: O=[N+]([O-])c1cc(S(=O)(=O)Nc2ccccc2)ccc1Nc1ccccc1
Output line: Yes

Input line: Outcome? CCOC(=O)c1[nH]n(-c2ccccc2)c(=O)c1C=NC(=S)C(N)=S
Output line: Yes

Input line: Hi, do you know how COc1cc(/C=C2\NC(=O)N(/C=C3\C(=O)Oc4ccccc4C3=O)C2=O)ccc1O came out in this test?
Output line: Yes

Input line: Answer briefly: the call reported for CCCC/C([O-])=C1/C(=O)N(c2ccccc2)N=C1C.CCCC/C([O-])=C1/C(=O)N(c2ccccc2)N=C1C.[Cu+2] in this assay.
Output line: No
